Each entry below carries its recorded Ki.
target: full-length hepatitis C viral protein NS3•4A (Hepatitis C virus genotype 1a); construct: hexa-histidine (N); made in house; host or cells: Sf9 insect cells (baculovirus, pVL1392); assay: biochemical; design: species or system HCV sub-type strain 1a; conditions: Enzyme Assay 2 (HCV NS3 Peptide Cleavage Assay) activity, apparent Ki class

| compound | Ki |
| --- | --- |
| CC(C)(C)[C@H](NC(=O)CC1CCCCC1)C(=O)N1C[C@@]2(CC(c3cc(Cl)c4c(c3)CCO4)=NO2)C[C@H]1C(=O)NC(CC1CCC1)C(=O)C(=O)NC1CC1 (some centres unmarked) | < 100 nM |
| C=C[C@@H]1C[C@]1(NC(=O)[C@@H]1C[C@]2(CC(c3cccc(Cl)c3)=NO2)CN1C(=O)[C@@H](NC(=O)OC1CCCC1)C(C)(C)C)C(=O)O | > 500 nM |
| CCC[C@H](NC(=O)[C@@H]1C[C@]2(CC(c3cccc(Cl)c3)=NO2)CN1C(=O)[C@@H](NC(=O)[C@@H]1CCC(=O)N1C(C)C)C(C)(C)C)C(=O)C(=O)NC1CC1 | 100 to 500 nM |
| CCC[C@H](NC(=O)[C@@H]1C[C@]2(CC(c3cccc(Cl)c3)=NO2)CN1C(=O)[C@H](CC(C)C)NC(C)=O)C(=O)C(=O)NC1CC1 | 100 to 500 nM |
| CNC(=O)C(=O)[C@H](CC1CC1)NC(=O)[C@@H]1C[C@]2(CC(c3cc(C)c(OC)c(Cl)c3)=NO2)CN1C(=O)[C@@H](NC(=O)CC1CCCCC1)C(C)(C)C | < 100 nM |
